System: SW620 human colon cancer cells
Assay: SW620 Cell Viability Assay
Type: cell-based
Details: SW-620, 96 h, CellTiter-Glo Luminescent Cell Viability Assay, 4 days incubation, read-out: Cellular EC50 (μM) SW620
Structures can show the parent of a compound that is named as a salt.
recorded_endpoint: EC50 (µM)
Form entry: value (µM) — number only.

>  <compound>
NCCC(Nc1nccc(-c2n[nH]c3nc(N[C@H]4CC[C@H](N)CC4)ncc23)n1)c1cccc(Cl)c1 (stereo partly drawn) [Example 80, hydrochloride]

>  <assay_system>
SW620 human colon cancer cells

>  <measured>
0.89

$$$$
>  <compound>
N[C@H]1CC[C@H](Nc2ncc3c(-c4cccc(NCc5ccccc5)c4)n[nH]c3n2)CC1

>  <assay_system>
SW620 human colon cancer cells

>  <measured>
0.923

$$$$

// moving on: another record for EC50
Entry under review: N[C@H]1CC[C@H](Nc2ncc3c(-c4ccnc(NCc5ccsc5)n4)n[nH]c3n2)CC1 [Example 66, hydrochloride] . Reported EC50? 0.04

====

Target: Human DYRK1B (Homo sapiens)
Construct: purchased Invitrogen PR8350B (former PV4649)
Sequence (Q9Y463 whole entry): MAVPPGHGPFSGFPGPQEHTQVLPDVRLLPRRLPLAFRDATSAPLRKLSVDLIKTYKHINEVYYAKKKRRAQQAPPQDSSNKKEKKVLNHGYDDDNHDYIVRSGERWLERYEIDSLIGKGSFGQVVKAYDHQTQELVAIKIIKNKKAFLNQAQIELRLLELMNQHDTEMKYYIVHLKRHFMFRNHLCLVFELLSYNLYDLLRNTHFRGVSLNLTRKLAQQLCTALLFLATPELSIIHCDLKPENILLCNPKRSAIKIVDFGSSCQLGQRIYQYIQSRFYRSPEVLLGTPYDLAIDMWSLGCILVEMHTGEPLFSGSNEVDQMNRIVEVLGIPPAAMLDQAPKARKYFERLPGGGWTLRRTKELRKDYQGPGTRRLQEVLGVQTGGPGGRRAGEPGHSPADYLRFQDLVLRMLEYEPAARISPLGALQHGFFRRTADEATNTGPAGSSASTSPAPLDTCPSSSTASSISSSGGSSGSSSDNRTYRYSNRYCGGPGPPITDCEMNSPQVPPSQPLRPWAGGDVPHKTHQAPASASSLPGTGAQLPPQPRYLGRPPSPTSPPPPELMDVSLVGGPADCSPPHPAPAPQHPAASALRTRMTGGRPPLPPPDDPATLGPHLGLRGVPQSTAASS
Assay: DYRK1B Kinase TR-FRET (IMAP-Tb) Assay
Assay type: biochemical
Conditions: TR-FRET (IMAP-Tb); ATP 70 μM; 37° C. for 60 minutes; averages of multiple runs; read-out: Enzyme IC50 (μM) DYRK1B
Counter-ions that a name gives are not always drawn.
Quick reference for IC50 among some molecules

>  <molecule>
c1cc(NCc2ccsc2)cc(-c2n[nH]c3nc(NCCN4CCOCC4)ncc23)c1

>  <measured>
> 10 µM

$$$$
>  <molecule>
NCCC(Nc1nccc(-c2n[nH]c3nc(N[C@H]4CC[C@H](N)CC4)ncc23)n1)c1cccc(Cl)c1 (stereo partly drawn) [Example 80, hydrochloride]

>  <measured>
< 0.0046 µM

$$$$

Value wanted: IC50 (Human DYRK1B (Homo sapiens)) of entry N[C@H]1CC[C@H](Nc2ncc3c(-c4cccc(NCc5ccsc5)n4)n[nH]c3n2)CC1 [Example 65, hydrochloride] < 0.005 µM

Source: patent US8362023B2
